biological target: Neuropeptide S receptor (Homo sapiens) (UniProt Q6W5P4); assay: Confirmation Concentration-Response Assay for Antagonists of the Neuropeptide S Receptor: cAMP Signal Transduction, SAR for Probe; settings: CHO-NPSR cells, cAMP TR-FRET, antagonist mode; series mostly up to 47.8 µM
Sequence (Q6W5P4 whole entry, looked up): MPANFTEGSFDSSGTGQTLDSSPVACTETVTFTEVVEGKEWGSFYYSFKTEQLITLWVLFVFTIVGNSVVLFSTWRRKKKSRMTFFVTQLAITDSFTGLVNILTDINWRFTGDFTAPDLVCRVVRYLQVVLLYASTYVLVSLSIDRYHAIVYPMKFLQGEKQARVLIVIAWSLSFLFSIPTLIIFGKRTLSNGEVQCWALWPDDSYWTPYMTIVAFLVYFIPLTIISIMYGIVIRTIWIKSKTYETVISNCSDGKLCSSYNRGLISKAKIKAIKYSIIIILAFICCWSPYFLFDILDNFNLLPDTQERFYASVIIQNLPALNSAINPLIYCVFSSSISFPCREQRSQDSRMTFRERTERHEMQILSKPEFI
Inconclusive results are not listed. Activity calls are given as the source filed them. Calls come from the whole dose curve.
Write down one outcome, taken from active, inactive

Some solved cases for reference:
molecule	assignedCategory
COc1ccc(C2c3c(nc(CCCc4ccccc4)[nH]c3=O)Oc3ccc4ccccc4c32)cc1OC (stereo not given)	inactive
COc1cccc(C2c3c(ncn(Cc4cccs4)c3=N)Oc3ccc4ccccc4c32)c1 (stereo not given)	active
COc1cccc(C2c3c(ncn(-c4ccccc4-c4ccccc4)c3=N)Oc3ccc4ccccc4c32)c1 (stereo not given)	active
O=C1OC(c2ccccc2)(c2ccccc2)N2CCN(C(=O)NCc3ccc(F)cc3)CC12 (stereo not given)	active

Okay, next one:
## Input Recorded test call requested for Cc1c(P(=S)(c2ccccc2)c2ccccc2)c2ccccc2n1C(=O)Cc1ccccc1
## Output inactive

###

biological target: Neuropeptide S receptor (Homo sapiens) (UniProt Q6W5P4); assay: Confirmation Concentration-Response Assay for Antagonists of the Neuropeptide S Receptor: cAMP Signal Transduction, SAR for Probe; settings: CHO-NPSR cells, cAMP TR-FRET, antagonist mode; series mostly up to 47.8 µM
Records with an inconclusive call do not appear. Activity calls are given as the source filed them. Calls follow the shape of the full dose curve.
Just give me one of these, please: YES for active, NO for inactive

compound	assignedCategory
c1ccc(P(c2ccccc2)c2cnc3ccccn23)cc1	NO

## Input Identify the outcome logged in this assay for the compound shown: COc1cccc(C2c3c(ncn(-c4ccc5c(c4)OCO5)c3=N)Oc3ccc4ccccc4c32)c1 (stereo not given)
## Output YES

## Input Lab log entry: COc1cccc(C2c3c(ncn(-c4ccc(C(C)(C)C)cc4)c3=N)Oc3ccc4ccccc4c32)c1 (stereo not given) — outcome as called in the assay?
## Output YES

## Input Identify the outcome logged in this assay for the compound shown: COc1cccc(C2c3c(ncn(-c4cccc(OC)c4)c3=N)Oc3ccc4ccccc4c32)c1 (stereo not given)
## Output YES

## Input What classification did Cc1c(P(=S)(c2ccccc2)c2ccccc2)c2ccccc2n1Cc1ccccc1 end up with in this test?
## Output NO

###

molecular target: Neuropeptide S receptor (Homo sapiens) (UniProt Q6W5P4); experiment: Confirmation Concentration-Response Assay for Antagonists of the Neuropeptide S Receptor: cAMP Signal Transduction, SAR for Probe; settings: CHO-NPSR cells, cAMP TR-FRET, antagonist mode; series mostly up to 47.8 µM
Records with an inconclusive call do not appear. Active and inactive are the calls of the source. The call rests on the fitted dose curve.
assayMetric: Potency

Would you please look over these solved cases?
compound	targetOrSystem	assayMetric	assayValue
COc1ccc(C2c3c(N)nc(CCc4ccccc4)nc3Oc3ccc4ccccc4c32)cc1OC (stereo not given)	Neuropeptide S receptor (Homo sapiens) (UniProt Q6W5P4)	Potency	48.7 µM (active)
COc1ccc2c(c1)Oc1ncn(CCN3CCOCC3)c(=N)c1C2c1ccc(OC)c(OC)c1 (stereo not given)	Neuropeptide S receptor (Homo sapiens) (UniProt Q6W5P4)	Potency	19.4 µM (active)
COc1cccc(C2c3c(ncn(-c4ccc(NC(C)=O)cc4)c3=N)Oc3ccc4ccccc4c32)c1 (stereo not given)	Neuropeptide S receptor (Homo sapiens) (UniProt Q6W5P4)	Potency	19.4 µM (active)
O=P(c1ccccc1)(c1ccccc1)c1cnc2ccccn12	Neuropeptide S receptor (Homo sapiens) (UniProt Q6W5P4)	Potency	inactive

The recorded Potency for entry COc1cccc(C2c3c(ncn(-c4cccc(C#N)c4)c3=N)Oc3ccc4ccccc4c32)c1 (stereo not given) equals 19.4 µM (active)

Potency reported for this compound C[n+]1cc(C(O)(c2ccccc2)c2ccccc2)n2ccccc21 : inactive

Form: compound = COc1cccc(C2c3c(ncn(-c4ccncc4)c3=N)Oc3ccc4ccccc4c32)c1 (stereo not given) ; Potency = 19.4 µM (active)

So, COc1ccc(C2C3=C(N=CN(CCN4CCOCC4)C3N)Oc3ccccc32)cc1OC (stereo not given) ? Its Potency was inactive

In plain terms, COc1ccc(C2c3ccccc3Oc3ncn(CCN4CCOCC4)c(=N)c32)cc1OC (stereo not given) has a documented Potency of 6.14 µM (active)

Entry COc1cccc(C2c3c(ncn(-c4ccc(-c5ccccc5)cc4)c3=N)Oc3ccc4ccccc4c32)c1 (stereo not given) ; Potency = inactive

###

target: Neuropeptide S receptor (Homo sapiens) (UniProt Q6W5P4); assay: Confirmation Concentration-Response Assay for Antagonists of the Neuropeptide S Receptor: cAMP Signal Transduction, SAR for Probe; settings: CHO-NPSR cells, cAMP TR-FRET, antagonist mode; series mostly up to 47.8 µM
Records with an inconclusive call do not appear. Calls of active or inactive are those of the source. Calls follow the shape of the full dose curve.
Respond only with the outcome that fits, drawn from true (1) for active, false (0) for inactive

# example entries with known answers
compound	targetOrSystem	assignedCategory
COc1ccc(C2c3c(n(Cc4ccccc4)cnc3=N)Oc3ccc4ccccc4c32)cc1OC (centres undefined)	Neuropeptide S receptor (Homo sapiens) (UniProt Q6W5P4)	true (1)
Cc1c(P(=O)(c2ccccc2)c2ccccc2)c2ccccc2n1C	Neuropeptide S receptor (Homo sapiens) (UniProt Q6W5P4)	false (0)
COc1cccc(C2c3c(ncn(-c4ccccc4SC)c3=N)Oc3ccc4ccccc4c32)c1 (centres undefined)	Neuropeptide S receptor (Homo sapiens) (UniProt Q6W5P4)	true (1)

## Input Check the results log: what was the call for COc1cccc(C2c3c(ncn(-c4cccnc4)c3=N)Oc3ccc4ccccc4c32)c1 (centres undefined) ?
## Output true (1)

## Input Test call, this compound: COc1cccc(C2c3c(ncn(-c4ccccc4OC)c3=N)Oc3ccc4ccccc4c32)c1 (centres undefined)
## Output true (1)

## Input How did this test come out for O=C(NCc1ccccc1)n1cc(P(=S)(c2ccccc2)c2ccccc2)c2ccccc21 ?
## Output false (0)

## Input Hey, what did the test say about COc1cccc(C2c3c(ncn(-c4ccc(C)cc4)c3=N)Oc3ccc4ccccc4c32)c1 (centres undefined) ?
## Output true (1)

## Input Recorded test call requested for COc1ccc(C2c3c(ncn(CCc4ccccc4)c3=N)Oc3ccc4ccccc4c32)cc1OC (centres undefined)
## Output true (1)

## Input // param item: Cc1nc2ccccn2c1P(=O)(c1ccccc1)c1ccccc1 ; yields the recorded call
## Output false (0)

## Input Status in this test for COc1ccc(C2c3c(nc(CCc4ccccc4)[nH]c3=O)Oc3ccc4ccccc4c32)cc1OC (centres undefined) ?
## Output false (0)

## Input Hello, I am checking results. What call was entered for COc1cccc(C2c3c(ncn(-c4ccccc4Cl)c3=N)Oc3ccc4ccccc4c32)c1 (centres undefined) ?
## Output true (1)

## Input What classification did COc1ccc(C2c3ccc4ccccc4c3Oc3ncn(CCN4CCOCC4)c(=N)c32)cc1OC (centres undefined) end up with in this test?
## Output true (1)

## Input Please indicate how the test categorized CCOC(=O)c1ccc(-n2cnc3c(c2=N)C(c2cccc(OC)c2)c2c(ccc4ccccc24)O3)cc1 (centres undefined) .
## Output true (1)

## Input # lookup: test call for COc1cccc(C2c3c(ncn(-c4cccc(C)c4)c3=N)Oc3ccc4ccccc4c32)c1 (centres undefined)
## Output true (1)

Hello, the source for this data is PubChem BioAssay AID2568, in case you need it.
